System: P. falciparum stage V gametocytes
Parameters: BacTiter-Glo ATP luminescence viability of purified stage V gametocytes in 384-well plates, per cent inhibition versus DMSO
Conditions: 48 h, 5 µM; inhibitor
The whole screen tested about 13,000 compounds, of which about 3,200 (25%) showed an effect of 50% or more. The list shows a part of the results.

| COMPOUND | UNIT | % Inhibition |
| --- | --- | --- |
| CN1CCCN(Cc2cccc(-c3ccc(NC(=O)c4ccc(Cl)cc4)cc3)c2)CC1 | % | 81.69 |
| O=C(c1cccs1)N(Cc1cccc(-c2ccc(CNC3CCCC3)cc2)c1)C1CCN(Cc2ccccc2)CC1 | % | 107 |
| CC(=O)C1(c2ccccc2)CCN(CCC2(c3ccc(Cl)c(Cl)c3)CN(C(=O)Nc3cccc(C(F)(F)F)c3)CCO2)CC1 (stereo not shown) | % | 34.05 |
| CC(C)CCN1CCCN(Cc2ccc(C(=O)Nc3ccc(F)c(F)c3)cc2)CC1 | % | 89.43 |
| CCCCCCC(C)c1cc(O)c2c(c1)OC(C)(C)C=C2c1ccncc1 (stereo not shown) | % | -3.085 |
| COC(=O)CN(C(=O)/C=C/c1ccc(Cl)c(Cl)c1)C1CCC(CN2CCC(c3c[nH]c4ccccc34)CC2)CC1 (stereo not shown) | % | 0.7085 |
| CN(Cc1cccc(C#N)c1)C1CCN(c2cc(NC(=O)c3cccc(F)c3)ccn2)CC1 | % | 21.14 |
| N#Cc1cccc(C(=O)Nc2cccc(-c3ccc(CN4CCC(O)CC4)cc3)c2)c1 | % | -17.85 |
| CC(C)CCN1CCCN(Cc2ccc(C(=O)Nc3ccc(Cl)cc3)cc2)CC1 | % | 0.3374 |
| CCN(CCCN1CCCCC1)c1cc(C)nc(Nc2ccc(F)c(C(F)(F)F)c2)n1 | % | 31.89 |
| O=C(Nc1cccc(CN2CCCN(Cc3cccc(Cl)c3)CC2)c1)c1ccc(Cl)c(Cl)c1 | % | 77.55 |
| CCCCCCC(C)c1cc(OCCN(CC)CC)c2c(c1)OC(C)(C)C=C2c1ccncc1 (stereo not shown) | % | 78.51 |
| CCOC(=O)C1=C(C)NC(Cn2ccnc2)=C(C(=O)OCC)C1c1ccc(C(C)(C)C)cc1 (stereo not shown) | % | 12.53 |
| CCN(CCCN1CCCCC1)c1cc(C)nc(Nc2ccc(Cl)c(C(F)(F)F)c2)n1 | % | 56.88 |
| O=C(NCCc1ccccc1)N(Cc1cccc(-c2ccc(CNCCc3ccccc3)cc2)c1)C1CCN(Cc2ccccc2)CC1 | % | 94.88 |
| Cc1ccc(NC(=O)c2ccc(CN3CCCN(CCC(C)C)CC3)cc2)cc1F | % | -21.57 |
| Cc1cccc2nc(-c3cccc(-c4ccc(NC(=O)Cc5ccc[n+]([O-])c5)cc4)c3)[nH]c12 | % | -15.96 |
| Cc1ccc(C2(C)CC(C)(C)N(C(=O)COc3ccc4ccccc4c3)c3ccccc32)cc1 (stereo not shown) | % | -65.04 |
| O=C(Nc1cccc(CN2CCCN(Cc3ccsc3)CC2)c1)c1ccc(Cl)c(Cl)c1 | % | -57.04 |
| CC(C)(C)NS(=O)(=O)c1cc(C(=O)N2CCC(CCN3CCC(O)(c4cccc(C(F)(F)F)c4)CC3)(c3cccc(F)c3)CC2)c(Cl)cc1F | % | 93.87 |
| C=CCOc1cccc2c1CCN(CCN1CCC(NC(=O)c3ccc(-c4ccc(Cl)cc4)cc3)CC1)C2 | % | -61.81 |
| NC(=O)COc1cccc2c1CCN(CCN1CCC(NC(=O)c3ccc(-c4ccc(Cl)cc4)cc3)CC1)C2 | % | -28.95 |
| CCCCCCN1CCN(Cc2cccc(NC(=O)c3ccc(Cl)c(Cl)c3)c2)CC1 | % | -46.23 |
| CCCCN1CCN(Cc2cccc(NC(=O)c3ccc(Cl)c(Cl)c3)c2)CC1 | % | -27.06 |
| CCCCNC(=O)C1CCCN(C(=O)c2ccc(O)c(-c3ccc(Cl)c(Cl)c3)c2)C1 (stereo not shown) | % | -1.062 |
| O=C(Nc1cccc(CN2CCCN(Cc3cccnc3)CC2)c1)c1ccc(Cl)c(Cl)c1 | % | 12.34 |
| Cc1ccccc1N1CCN(c2ncc(C(=O)NC3CC3)cc2Cl)CC1 | % | 6.226 |
| Cc1nnc2sc(-c3cccc(NC(=O)c4ccc(N5CCCCC5)c([N+](=O)[O-])c4)c3)nn12 | % | 2.608 |
| CC(C)CCN1CCCN(Cc2cccc(NC(=O)c3ccc(Cl)c(Cl)c3)c2)CC1 | % | 68.73 |
| COc1cccc2c1CCN(CCN1CCC(NC(=O)c3ccc(-c4cccc(Cl)c4Cl)cc3)CC1)C2 | % | 76.97 |
| COCCNCc1ccc(-c2cccc(CN(C(=O)NCCc3ccccc3)C3CCN(Cc4ccccc4)CC3)c2)cc1 | % | 102.8 |
